B1: ANKRD40 (parent)
chain: VCCCELGVNPDQVEKIRKLPNTLL

# Variants of: B1
# MEASUREMENT NOTES: protein stability index of a GFP-peptide fusion (GPS, HEK-293T) (PSI 1-6); higher = more stable;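 note: lentivirally expressed fusions sorted by FACS into six bins by GFP to DsRed ratio, PSI derived from sequencing read proportions per bin multiplied by bin number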
# MEASUREMENT CONTEXT: c terminus: a fixed tail appended
Short version: protein stability index at least 2 is True, less is False.

>>> classification("VCCCELGVNPDQVTKIRKLPNTLL [E14T]")
"False"

Qu. Confirm if protein stability index reported for the variant VCCCELGVNPDQVEKIRYLPNTLL [K18Y] is 2 or above.
Ans. False

Qu. Confirm if protein stability index reported for the variant VCCCELGVNPMQVEKIRKLPNTLL [D11M] is 2 or above.
Ans. True

Qu. Confirm if protein stability index reported for the variant VCCCELGVNPDQVVKIRKLPNTLL [E14V] is 2 or above.
Ans. False

Qu. Confirm if protein stability index reported for the variant VCCCELGVAPDQVEKIRKLPNTLL [N9A] is 2 or above.
Ans. False

Qu. Confirm if protein stability index reported for the variant VCCCELGVNPDQVEKIFKLPNTLL [R17F] is 2 or above.
Ans. False

Qu. Confirm if protein stability index reported for the variant VCCCELGVNPDQVEKIRKLPNTDL [L23D] is 2 or above.
Ans. True

Qu. Confirm if protein stability index reported for the variant VCCCELGVNPDNVEKIRKLPNTLL [Q12N] is 2 or above.
Ans. False

Qu. Confirm if protein stability index reported for the variant VCWCELGVNPDQVEKIRKLPNTLL [C3W] is 2 or above.
Ans. False

Qu. Confirm if protein stability index reported for the variant VCCCELFVNPDQVEKIRKLPNTLL [G7F] is 2 or above.
Ans. True

Qu. Confirm if protein stability index reported for the variant VCCCELHVNPDQVEKIRKLPNTLL [G7H] is 2 or above.
Ans. True

Qu. Confirm if protein stability index reported for the variant VCCCELGVNPDQVEKIRKCPNTLL [L19C] is 2 or above.
Ans. True

Qu. Confirm if protein stability index reported for the variant VCCCELGVNPDQVEKIRKLPNFLL [T22F] is 2 or above.
Ans. True

Qu. Confirm if protein stability index reported for the variant VCCCELGVSPDQVEKIRKLPNTLL [N9S] is 2 or above.
Ans. True
